Biological target: human bradykinin 1 receptor (B1R) (Homo sapiens, UniProt P46663)
Construct: expressed in transfected cells; host or cells: CHO K1 cells
Sequence (P46663 whole entry): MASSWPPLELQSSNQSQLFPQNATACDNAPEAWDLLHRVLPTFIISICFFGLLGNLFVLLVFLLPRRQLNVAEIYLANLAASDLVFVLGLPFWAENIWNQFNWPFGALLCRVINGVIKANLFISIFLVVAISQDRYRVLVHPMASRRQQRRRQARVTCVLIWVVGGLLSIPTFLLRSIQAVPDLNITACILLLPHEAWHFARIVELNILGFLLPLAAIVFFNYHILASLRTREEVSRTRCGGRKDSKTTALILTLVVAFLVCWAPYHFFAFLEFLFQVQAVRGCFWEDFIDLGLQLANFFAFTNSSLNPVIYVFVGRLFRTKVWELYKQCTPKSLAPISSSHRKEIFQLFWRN
Assay: Functional investigation on the human bradykinin 1 receptor (B1R), Ca2+ FLIPR assay in CHO K1 hB1R cells
Format: cell-based
Details: B1R antagonism human; test substance 10 μM; Ca2+ FLIPR, CHO K1 hB1R cells
Measurement label: B1R Ant. h [10 μM] % Inhibition (%)
Report the figure in % without appending any unit label.

Can you share its B1R Ant. h [10 μM] % Inhibition? I mean this compound: CN(C)C(c1ccccc1)C1CCC(CNC(=O)COCC2CCCN(S(=O)(=O)c3ccccc3)C2)CC1 (stereo not shown) −5

Which B1R Ant. h [10 μM] % Inhibition reading was recorded for the compound CN(C)C(CCc1ccccc1)C1CCC(CNC(=O)COC2CCCCC2N(C)S(=O)(=O)c2ccc(Cl)c(Cl)c2)CC1 (stereo not shown) ? 87

What does the data say about its B1R Ant. h [10 μM] % Inhibition? Entry: CN(C)C(c1ccc(F)cc1)C1CCC(CNC(=O)COCCN(C)S(=O)(=O)c2ccc(Cl)cc2Cl)CC1 (stereo not shown) 104

Would you kindly share the measured B1R Ant. h [10 μM] % Inhibition for COc1cc(C)c(S(=O)(=O)N2CCCC(OCC(=O)NCC3CCC(C(c4ccc(F)cc4)N(C)C)CC3)C2)c(C)c1C (stereo not shown) ? 53

Find the recorded B1R Ant. h [10 μM] % Inhibition belonging to COc1ccc(S(=O)(=O)N2CCCCC2COCC(=O)NCCC2CCC(C(c3ccc(F)cc3)N(C)C)CC2)cc1 (stereo not shown) and report it. 68

# B1R Ant. h [10 μM] % Inhibition lookup, item CN(C)C(c1ccc(F)cc1)C1CCC(CCNC(=O)COCCN(Cc2ccccc2)S(=O)(=O)c2ccccc2)CC1 (stereo not shown) 34

Field request: B1R Ant. h [10 μM] % Inhibition | item: CN(C)C(CCc1ccccc1)C1CCC(CNC(=O)COCCN(Cc2ccccc2)S(=O)(=O)c2ccccc2)CC1 (stereo not shown) 35

Report B1R Ant. h [10 μM] % Inhibition for COc1ccc(S(=O)(=O)N2CCCCC2COCC(=O)NCC2CCC(C(c3ccc(F)cc3)N(C)C)CC2)c(OC)c1 (stereo not shown) please. 5

Query (compound): COc1ccc(S(=O)(=O)N(C)CCOCC(=O)NC2CCC(C(c3ccccc3)N(C)C)CC2)cc1 (stereo not shown) ; field requested: B1R Ant. h [10 μM] % Inhibition −1

Need B1R Ant. h [10 μM] % Inhibition of CN(C)C(c1cccc(F)c1)C1CCC(CNC(=O)COC2CCCN(S(=O)(=O)c3ccccc3)C2)CC1 (stereo not shown) , thanks. −4

Quick one: B1R Ant. h [10 μM] % Inhibition for CN(C)C(c1ccccc1)C1CCC(NC(=O)COCCN(C)S(=O)(=O)c2cccc(C(F)(F)F)c2)CC1 (stereo not shown) ? 56

Suppose we examine the compound CN(CCOCC(=O)NC1CCC(C(c2ccccc2)N2CCCC2)CC1)S(=O)(=O)c1c(Cl)cc(Cl)cc1Cl (stereo not shown) [Example 606] ; what B1R Ant. h [10 μM] % Inhibition value has been reported? 77

Entry COc1ccc(S(=O)(=O)N2CCC(OCC(=O)NC3CCC(C(c4cccc(F)c4)N(C)C)CC3)C2)cc1OC (stereo not shown) : reported B1R Ant. h [10 μM] % Inhibition = ? −14

// returns reported B1R Ant. h [10 μM] % Inhibition for input CN(C)C(c1ccc(F)cc1)C1CCC(CCNC(=O)COC2CCCCC2N(C)S(=O)(=O)c2ccc(Cl)c(Cl)c2)CC1 (stereo not shown) 21

Fill in the blank: the reported B1R Ant. h [10 μM] % Inhibition of CN(C)C(c1cccc(F)c1)C1CCC(CNC(=O)COCC2CCCN(S(=O)(=O)c3ccccc3)C2)CC1 (stereo not shown) is ____. 6

So what's the measured B1R Ant. h [10 μM] % Inhibition for this one? COc1ccc(S(=O)(=O)N2CCCCC2COCC(=O)NCC2CCC(C(CCc3ccccc3)N(C)C)CC2)c(OC)c1 (stereo not shown) [Example 486] 28

Form field: reported B1R Ant. h [10 μM] % Inhibition of CN(C)C(c1cccc(F)c1)C1CCC(NC(=O)COCCN(C)S(=O)(=O)c2ccc(OC(F)(F)F)cc2)CC1 (stereo not shown) 10

Tell me the measured B1R Ant. h [10 μM] % Inhibition of CN(C)C(c1ccccc1)C1CCC(NC(=O)COCCN(C)S(=O)(=O)c2ccc(OC(F)(F)F)cc2)CC1 (stereo not shown) , please. 20

Query (compound): CN(C)C(c1ccccc1)C1CCC(NC(=O)COCCN(C)S(=O)(=O)c2ccccc2)CC1 (stereo not shown) ; field requested: B1R Ant. h [10 μM] % Inhibition 6

Look up B1R Ant. h [10 μM] % Inhibition for this compound: CN(C)C(c1ccc(Cl)cc1)C1CCC(CCNC(=O)COCC2CCCN(S(=O)(=O)c3ccccc3)C2)CC1 (stereo not shown) 12

Could you share which B1R Ant. h [10 μM] % Inhibition value was measured for CN(C)C(c1ccccc1)C1CCC(NC(=O)COCc2c(N(C)S(=O)(=O)c3ccc(Cl)c(Cl)c3)sc3c2CCCC3)CC1 (stereo not shown) ? 21

Field request: B1R Ant. h [10 μM] % Inhibition | item: COc1ccc(S(=O)(=O)N(C)CCOCC(=O)NC2CCC(C(c3cccc(F)c3)N(C)C)CC2)cc1 (stereo not shown) 12

Form field: reported B1R Ant. h [10 μM] % Inhibition of O=C(COC1CCN(S(=O)(=O)c2c(Cl)cc(Cl)cc2Cl)C1)NC1CCC(C(c2ccccc2)N2CCOCC2)CC1 (stereo not shown) 13

What B1R Ant. h [10 μM] % Inhibition value was documented for this compound, COc1ccc(S(=O)(=O)N2CCCCC2COCC(=O)NCC2CCC(C(c3ccc(F)cc3)N(C)C)CC2)cc1OC (single isomer, unassigned) [Example 534] ? −18

Item COc1ccc(S(=O)(=O)N2CCCCC2CCOCC(=O)NCCC2CCC(C(c3ccc(Cl)cc3)N(C)C)CC2)cc1 (stereo not shown) has what recorded B1R Ant. h [10 μM] % Inhibition? 77

B1R Ant. h [10 μM] % Inhibition for CN(C)C(c1cccc(F)c1)C1CCC(CCNC(=O)COCCC2CCN(S(=O)(=O)c3ccccc3)CC2)CC1 (stereo not shown) ? −31

What does the record list as B1R Ant. h [10 μM] % Inhibition for CN(C)C(c1ccc(Cl)cc1)C1CCC(CNC(=O)COC2CCN(S(=O)(=O)c3cccc(C(F)(F)F)c3)C2)CC1 (stereo not shown) ? 30

Bench note: what B1R Ant. h [10 μM] % Inhibition did COc1cc(C)c(S(=O)(=O)N2CCCC(OCC(=O)NC3CCC(C(c4ccc(F)cc4)N(C)C)CC3)C2)c(C)c1C (stereo not shown) show? 15
